Catalogue of compounds with associated IC50
# subject-of-test: Recombinant human KIF18A (1-467His-tagged) protein (Homo sapiens (Human), UniProt Q8NI77)
# Sequence (Q8NI77 1-467): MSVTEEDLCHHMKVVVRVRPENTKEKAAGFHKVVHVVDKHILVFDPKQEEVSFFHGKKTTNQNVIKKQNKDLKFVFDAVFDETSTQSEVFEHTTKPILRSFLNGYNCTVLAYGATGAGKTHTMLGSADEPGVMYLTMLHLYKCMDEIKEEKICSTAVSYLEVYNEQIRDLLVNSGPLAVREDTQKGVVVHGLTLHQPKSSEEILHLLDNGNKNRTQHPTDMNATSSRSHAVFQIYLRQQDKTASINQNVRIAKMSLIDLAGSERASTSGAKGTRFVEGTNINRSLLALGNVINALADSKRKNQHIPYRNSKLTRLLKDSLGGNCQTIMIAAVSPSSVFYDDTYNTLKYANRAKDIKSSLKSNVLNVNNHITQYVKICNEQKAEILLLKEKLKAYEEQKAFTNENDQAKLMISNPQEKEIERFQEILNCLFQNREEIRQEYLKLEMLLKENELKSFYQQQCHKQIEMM
# Sequence (P02550 whole entry partner): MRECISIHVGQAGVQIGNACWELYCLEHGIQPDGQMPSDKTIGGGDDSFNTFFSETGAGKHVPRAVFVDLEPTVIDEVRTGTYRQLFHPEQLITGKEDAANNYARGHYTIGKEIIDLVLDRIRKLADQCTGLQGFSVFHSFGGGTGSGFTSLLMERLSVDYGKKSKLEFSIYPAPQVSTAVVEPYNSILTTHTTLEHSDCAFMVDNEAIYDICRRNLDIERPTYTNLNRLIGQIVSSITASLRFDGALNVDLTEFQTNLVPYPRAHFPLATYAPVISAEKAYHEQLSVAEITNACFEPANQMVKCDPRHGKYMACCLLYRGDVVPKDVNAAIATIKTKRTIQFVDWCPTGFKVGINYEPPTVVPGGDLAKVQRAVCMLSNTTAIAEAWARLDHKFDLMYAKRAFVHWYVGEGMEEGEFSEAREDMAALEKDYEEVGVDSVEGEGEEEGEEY
# Sequence (P02554 whole entry partner): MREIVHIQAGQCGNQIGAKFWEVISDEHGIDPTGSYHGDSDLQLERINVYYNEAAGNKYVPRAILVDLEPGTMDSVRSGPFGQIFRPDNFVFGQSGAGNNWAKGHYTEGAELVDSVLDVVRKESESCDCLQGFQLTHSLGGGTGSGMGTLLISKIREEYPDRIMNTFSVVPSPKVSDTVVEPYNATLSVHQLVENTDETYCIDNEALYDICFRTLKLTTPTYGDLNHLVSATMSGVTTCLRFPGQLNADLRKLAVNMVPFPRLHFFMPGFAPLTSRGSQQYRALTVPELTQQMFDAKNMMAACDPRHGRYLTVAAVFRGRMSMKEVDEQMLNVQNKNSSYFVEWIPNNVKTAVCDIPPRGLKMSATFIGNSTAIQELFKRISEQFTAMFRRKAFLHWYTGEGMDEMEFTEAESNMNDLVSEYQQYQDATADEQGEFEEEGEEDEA
# protocol-description: KIF18A enzyme assay (microtubule-stimulated ATPase activity, ADP-Glo)
# recorded-conditions: 30 nM KIF18A, ATP 75 μM, read-out: inhibitory activity against KIF18A IC50

Previously resolved entries follow.
C[C@@H](CO)NS(=O)(=O)c1ccc(NC(=O)c2cc3c(c(N4CCC(F)(F)CC4)n2)OCC3)c(N2CCC3(CC2)CC3)c1 [Compound 125] | ≤ 100 nM
Cn1ccc2cc(NC(=O)c3ccc(S(=O)(=O)NCCO)cc3N3CCC4(CC3)CC4)nc(OC3CCC3)c21 [Compound 471] | ≤ 100 nM
O=C(Nc1cc(N2CCC(F)(F)CC2)c2scnc2c1)c1ccc(NS(=O)(=O)CCO)cc1N1CCC2(CC1)CC2 [Compound 515] | ≤ 100 nM

IC50 of O=C(Nc1cc2c(c(OCCC(F)(F)F)c1)OCC2)c1ccc(S(=O)(=O)NCCO)cc1N1CCC2(CC1)CC2 [Compound 21] , assay on Recombinant human KIF18A (1-467His-tagged) protein (Homo sapiens (Human), UniProt Q8NI77), is ≤ 100 nM

---

# subject-of-test: Recombinant human KIF18A (1-467His-tagged) protein (Homo sapiens (Human))
# protocol-description: KIF18A enzyme assay (microtubule-stimulated ATPase activity, ADP-Glo)
# recorded-conditions: 30 nM KIF18A, ATP 75 μM, read-out: inhibitory activity against KIF18A IC50
Catalogue of molecules with associated IC50

CN1CCc2cc(C(=O)Nc3ccc(NS(=O)(=O)CCO)cc3N3CCC4(CC3)CC4)nc(N3CCC(F)CC3)c21 | ≤ 100 nM
C[C@@H]1CN(c2nc(C(=O)Nc3ccc(NS(=O)(=O)CCO)cc3N3CCC4(CC3)CC4)cc3ccn(C)c23)CCO1 | ≤ 100 nM
O=C(Nc1ccc(NS(=O)(=O)CCO)cc1N1CCC2(CC1)CC2)c1cc2c(c(N3CCOCC3)c1)OCC2 | ≤ 100 nM
O=C(Nc1ccc(NS(=O)(=O)CCO)cc1N1CCC2(CC1)CC2)c1cc2c(c(OCCC(F)(F)F)c1)OCC2 | ≤ 100 nM

Notebook: `O=C(Nc1cc(N2CCC(F)(F)CC2)c2[nH]cnc2c1)c1ccc(NS(=O)(=O)CCO)cc1N1CCC2(CC1)CC2` , IC50 read as ≤ 100 nM

Notebook: `C[C@H](CO)NS(=O)(=O)c1ccc(NC(=O)c2cc3c(c(N4CCO[C@H](C)C4)c2)OCC3)c(N2CCC3(CC2)CC3)c1` , IC50 read as ≤ 100 nM

Notebook: `C[C@H]1CN(c2cc(NC(=O)c3ccc(NS(=O)(=O)CCO)cc3N3CCC4(CC3)CC4)cc3c2OCC3)CCO1` , IC50 read as ≤ 100 nM

---

# subject-of-test: Recombinant human KIF18A (1-467His-tagged) protein (Homo sapiens (Human))
# protocol-description: KIF18A enzyme assay (microtubule-stimulated ATPase activity, ADP-Glo)
# recorded-conditions: 30 nM KIF18A, ATP 75 μM, read-out: inhibitory activity against KIF18A IC50
assay-metric: IC50

Previously resolved entries follow.
C[C@@H](CO)S(=O)(=O)Nc1ccc(C(=O)Nc2cc3c(c(N4CCC(F)(F)CC4)c2)OCC3)c(N2CCC3(CC2)CC3)c1 | ≤ 100 nM
O=C(Nc1cc(N2CC3CC3C2)c2occc2c1)c1ccc(S(=O)(=O)NCCO)cc1N1CCC2(CC1)CC2 (stereo not drawn) | ≤ 100 nM

Below: the item to evaluate.
IC50 of `C[C@@H]1CN(c2nc(C(=O)Nc3ccc(NS(=O)(=O)[C@@H](C)CO)cc3N3CCC4(CC3)CC4)cc3c2N(C)CC3)CCO1` , assay on Recombinant human KIF18A (1-467His-tagged) protein (Homo sapiens (Human)), is ≤ 100 nM

---

Catalogue of compounds with associated pIC50
# subject-of-test: Recombinant human KIF18A (1-467His-tagged) protein (Homo sapiens (Human), UniProt Q8NI77)
# protocol-description: KIF18A enzyme assay (microtubule-stimulated ATPase activity, ADP-Glo)
# recorded-conditions: 30 nM KIF18A, ATP 75 μM, read-out: inhibitory activity against KIF18A IC50
# Method: Biological Example 1. Assay for In Vitro Inhibition of Enzymatic Activity of KIF18A by Compounds of the Present Invention KIF18A enzyme assay: The enzymatic activity of KIF18A after treatment with the compounds was measured by an assay of microtubule-stimulated ATPase activity. ADP generated from the ATPase reaction was measured in this assay. The compounds were serially diluted 2-fold in DMSO over a range of 22 concentration points. […]
pIC50: −log10 of the molar value.

Previously resolved entries follow.
C[C@@H]1CN(c2cc(NC(=O)c3ccc(NS(=O)(=O)[C@@H](C)CO)cc3N3CCC4(CC3)CC4)cc3c2OCC3)CCO1 [Compound 15] | ≥ 7.00
C[C@@H](CO)S(=O)(=O)Nc1ccc(C(=O)Nc2cc3c(c(N4CCC(F)(F)CC4)n2)OCC3)c(N2CCC3(CC2)CC3)c1 [Compound 77] | ≥ 7.00
C[C@@H]1CN(c2nc(NC(=O)c3ccc(S(=O)(=O)N[C@@H](C)CO)cc3N3CCC4(CC3)CC4)cc3ccoc23)CCO1 [Compound 223] | ≥ 7.00
CC1(F)CCN(c2nc(C(=O)Nc3ccc(NS(=O)(=O)CCO)cc3N3CCC4(CC3)CC4)cc3ccoc23)C1 (stereo not shown) [Compound 232] | ≥ 7.00
CN1CCc2cc(NC(=O)c3ccc(NS(=O)(=O)CCO)cc3N3CCC4(CC3)CC4)nc(OC3CCC3)c21 [Compound 327] | ≥ 7.00
CC(C)(CO)Nc1cc(NC(=O)c2ccc(NS(=O)(=O)CCO)cc2N2CCC3(CC2)CC3)cc2ccoc12 [Compound 139] | ≥ 7.00

Below: the item to evaluate.
pIC50 of CC(C)(CO)Nc1cc(C(=O)Nc2ccc(NS(=O)(=O)CCO)cc2N2CCC3(CC2)CC3)cc2ccoc12 [Compound 171] , assay on Recombinant human KIF18A (1-467His-tagged) protein (Homo sapiens (Human), UniProt Q8NI77), is ≥ 7.00

---

# subject-of-test: Recombinant human KIF18A (1-467His-tagged) protein (Homo sapiens (Human))
# protocol-description: KIF18A enzyme assay (microtubule-stimulated ATPase activity, ADP-Glo)
# recorded-conditions: 30 nM KIF18A, ATP 75 μM, read-out: inhibitory activity against KIF18A IC50
assay-metric: IC50

Notebook: C[C@@H]1CN(c2cc(C(=O)Nc3ccc(NS(=O)(=O)CCO)cc3N3CCC4(CC3)CC4)cc3ccoc23)CCO1 [Compound 162] , IC50 read as ≤ 100 nM

Notebook: O=C(Nc1ccc(S(=O)(=O)NCCO)cc1N1CCC2(CC1)CC2)c1cc2ccoc2c(N2CCOCC2)n1 [Compound 252] , IC50 read as ≤ 100 nM

Notebook: Cn1ccc2cc(NC(=O)c3ccc(NS(=O)(=O)CCO)cc3N3CCC4(CC3)CC4)nc(N3CC(F)(F)C3)c21 [Compound 452] , IC50 read as ≤ 100 nM

Notebook: C[C@@H](CO)NS(=O)(=O)c1ccc(NC(=O)c2cc(N3CCC(F)(F)CC3)c3c(ccn3C)c2)c(N2CCC3(CC2)CC3)c1 [Compound 445] , IC50 read as ≤ 100 nM

Notebook: C[C@H](CO)NS(=O)(=O)c1ccc(C(=O)Nc2cc3c(c(N4CCO[C@H](C)C4)c2)N(C)CC3)c(N2CCC3(CC2)CC3)c1 [Compound 288] , IC50 read as ≤ 100 nM

Notebook: C[C@H](CO)NS(=O)(=O)c1ccc(C(=O)Nc2cc3c(c(N4CCO[C@H](C)C4)n2)OCC3)c(N2CCC3(CC2)CC3)c1 [Compound 96] , IC50 read as ≤ 100 nM

---

# subject-of-test: Recombinant human KIF18A (1-467His-tagged) protein (Homo sapiens (Human), UniProt Q8NI77)
# protocol-description: KIF18A enzyme assay (microtubule-stimulated ATPase activity, ADP-Glo)
# recorded-conditions: 30 nM KIF18A, ATP 75 μM, read-out: inhibitory activity against KIF18A IC50
# Method: Biological Example 1. Assay for In Vitro Inhibition of Enzymatic Activity of KIF18A by Compounds of the Present Invention KIF18A enzyme assay: The enzymatic activity of KIF18A after treatment with the compounds was measured by an assay of microtubule-stimulated ATPase activity. ADP generated from the ATPase reaction was measured in this assay. The compounds were serially diluted 2-fold in DMSO over a range of 22 concentration points. […]
assay-metric: IC50

Previously resolved entries follow.
C[C@H]1CN(c2cc(NC(=O)c3ccc(NS(=O)(=O)CCO)cc3N3CCC4(CC3)CC4)cc3c2N(C)CC3)CCO1 | ≤ 100 nM
Cn1ccc2cc(NC(=O)c3ccc(NS(=O)(=O)CCO)cc3N3CCC4(CC3)CC4)cc(N3CCOCC3)c21 | ≤ 100 nM

Notebook: `C[C@H](CO)NS(=O)(=O)c1ccc(C(=O)Nc2cc(N3CCC(F)(F)CC3)c3c(ccn3C)c2)c(N2CCC3(CC2)CC3)c1` , IC50 read as ≤ 100 nM
